# ASSAYED_SYSTEM: HO-2 (rat brain) (Rattus norvegicus, UniProt P23711)
# Construct: brain microsomes were used as a source of HO-2; from tissue; host or cells: brain microsomal fraction of adult male Sprague-Dawley rats
# Sequence (P23711 1-315): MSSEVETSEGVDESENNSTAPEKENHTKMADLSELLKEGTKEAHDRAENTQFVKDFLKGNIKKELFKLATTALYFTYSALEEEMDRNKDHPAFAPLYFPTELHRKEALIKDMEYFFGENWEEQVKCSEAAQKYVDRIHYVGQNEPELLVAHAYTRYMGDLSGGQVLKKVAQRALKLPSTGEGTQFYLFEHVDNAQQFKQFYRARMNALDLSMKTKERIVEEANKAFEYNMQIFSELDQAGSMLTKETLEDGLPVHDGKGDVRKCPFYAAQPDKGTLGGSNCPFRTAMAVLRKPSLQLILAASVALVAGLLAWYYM
# PROCEDURE_SUMMARY: HO enzymatic activity, rat brain microsomal fraction (CO formation from methemalbumin)
# Format: biochemical
# CONDITION_DESCRIPTION: IC50 HO-2 (rat brain)/μM), average ± SD of replicate experiments
Structures can show the parent of a compound that is named as a salt.
Field 'label' (enum: met / not met). Set to met when IC50 is strictly under 10 µM; else not met.

Previously resolved entries follow.
{"MOLECULE": "c1ccc(C2(Cn3cncn3)OCCO2)cc1 [QC-254, hydrochloride]", "CLASS_ASSIGNMENT": "not met"}
{"MOLECULE": "O=C(Cn1cncn1)c1ccccc1 [QC-157, hydrochloride]", "CLASS_ASSIGNMENT": "not met"}
{"MOLECULE": "Cn1c(NCCc2c[nH]cn2)nc2ccccc21 [QC-147, dihydrochloride]", "CLASS_ASSIGNMENT": "not met"}
{"MOLECULE": "Cc1ccc(C(=O)Cn2ccnc2)cc1 [QC-165, hydrochloride]", "CLASS_ASSIGNMENT": "not met"}
{"MOLECULE": "O=C(Cn1ccnc1)c1ccc(Cl)c(Cl)c1", "CLASS_ASSIGNMENT": "met"}

Given O=C(Cn1cncn1)c1ccc(Cl)cc1 [QC-158, hydrochloride] , is recorded IC50 strictly lower than 10 µM?
not met

Given O=C(Cn1ccnc1)c1ccc(Br)cc1 [QC-161, hydrochloride] , is recorded IC50 strictly lower than 10 µM?
not met

Given O=C(Cn1ccnc1)c1ccc([N+](=O)[O-])cc1 [QC-159, hydrochloride] , is recorded IC50 strictly lower than 10 µM?
not met

Given O=C(CCc1ccccc1)Cn1ccnc1[N+](=O)[O-] [QC-160, hydrochloride] , is recorded IC50 strictly lower than 10 µM?
not met

Given O=C(Cn1ccnc1)c1ccc(-c2ccccc2)cc1 [QC-166, hydrochloride] , is recorded IC50 strictly lower than 10 µM?
met

* * *

# ASSAYED_SYSTEM: HO-1 (rat spleen) (Rattus norvegicus, UniProt P06762)
# Construct: Spleen microsomes were used as a source of HO-1; from tissue; host or cells: spleen microsomal fraction of adult male Sprague-Dawley rats
# Sequence (P06762 1-289): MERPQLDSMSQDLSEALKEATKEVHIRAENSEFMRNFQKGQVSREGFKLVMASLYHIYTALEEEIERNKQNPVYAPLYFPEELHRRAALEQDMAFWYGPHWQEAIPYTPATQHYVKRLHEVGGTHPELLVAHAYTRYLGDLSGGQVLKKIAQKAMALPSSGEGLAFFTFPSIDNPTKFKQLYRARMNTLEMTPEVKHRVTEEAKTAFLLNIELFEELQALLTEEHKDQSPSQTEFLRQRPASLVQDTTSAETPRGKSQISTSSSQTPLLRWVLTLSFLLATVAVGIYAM
# PROCEDURE_SUMMARY: HO enzymatic activity, rat spleen microsomal fraction (CO formation from methemalbumin)
# Assay type: biochemical
# CONDITION_DESCRIPTION: IC50 HO-1 (rat spleen/μM), CO formation from methemalbumin, mean ± SD of replicate experiments
Structures can show the parent of a compound that is named as a salt.
In this section, each of the compounds is paired with its reported IC50.
State the answer as a number, implicitly in µM.

{"COMPOUND": "Cc1ccc(S(=O)(=O)OC[C@@H]2CO[C@](CCc3ccc(Cl)cc3)(Cn3ccnc3)O2)cc1 [QC-6]", "MEASURED_QUANTITY": "IC50", "ENDPOINT_RESULT": 21}
{"COMPOUND": "Cc1ccc(S(=O)(=O)OC[C@@H]2CO[C@](CCc3ccc(Cl)cc3)(Cn3ccnc3)O2)cc1 [QC-4, dihydrochloride]", "MEASURED_QUANTITY": "IC50", "ENDPOINT_RESULT": 19}
{"COMPOUND": "Cl.Ic1ccc(CCC2(Cn3ccnc3)OCCO2)cc1 [QC-78, hydrochloride]", "MEASURED_QUANTITY": "IC50", "ENDPOINT_RESULT": 4}
{"COMPOUND": "Nc1cccc(SC[C@@H]2CO[C@](CCc3ccc(Cl)cc3)(Cn3ccnc3)O2)c1 [QC-7, dihydrochloride]", "MEASURED_QUANTITY": "IC50", "ENDPOINT_RESULT": 1.5}
{"COMPOUND": "O=C(CCn1ccnc1)c1ccccc1O", "MEASURED_QUANTITY": "IC50", "ENDPOINT_RESULT": 25}

Find IC50 for Cc1ccc(S(=O)(=O)OC[C@H]2CO[C@@](CCc3ccc(Cl)cc3)(Cn3ccnc3)O2)cc1 on HO-1 (rat spleen) (Rattus norvegicus, UniProt P06762) and write it down.
0.8
